Tested system: interaction between glucokinase (GK) and glucokinase regulatory protein (GKRP) (Homo sapiens, UniProt Q14397)
Sequence (Q14397 1-625): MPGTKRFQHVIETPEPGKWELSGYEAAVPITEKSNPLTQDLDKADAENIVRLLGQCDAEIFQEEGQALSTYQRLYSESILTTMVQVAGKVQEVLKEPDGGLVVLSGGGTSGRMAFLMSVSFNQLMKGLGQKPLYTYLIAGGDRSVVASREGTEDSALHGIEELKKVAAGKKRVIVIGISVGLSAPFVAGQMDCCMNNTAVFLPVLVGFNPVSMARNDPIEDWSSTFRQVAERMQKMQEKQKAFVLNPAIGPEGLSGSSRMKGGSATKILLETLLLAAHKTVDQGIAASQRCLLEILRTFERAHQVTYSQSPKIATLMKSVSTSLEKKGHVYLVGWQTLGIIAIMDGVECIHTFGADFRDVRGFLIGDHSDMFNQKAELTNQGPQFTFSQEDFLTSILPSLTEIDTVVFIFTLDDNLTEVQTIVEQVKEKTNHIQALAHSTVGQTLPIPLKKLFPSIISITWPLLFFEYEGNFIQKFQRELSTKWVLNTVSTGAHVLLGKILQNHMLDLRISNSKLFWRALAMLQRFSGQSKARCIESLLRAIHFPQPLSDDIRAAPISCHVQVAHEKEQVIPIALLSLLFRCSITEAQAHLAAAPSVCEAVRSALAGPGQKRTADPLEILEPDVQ
Test description: biochemical
Assay type: binding
Measurement parameters: avi-tagged GKRP, GK-fluorescein, AlphaScreen beads; read-out: GK-GKRP IC50 (Binding)
pIC50: −log10 of the molar value.
# binarize pIC50: threshold 7 inclusive, high side t, low side f

Consider the following illustrative entries.
State whether the measured pIC50 reaches 7, counting equality as reaching it, for CC(O)(c1ccc(N2CCN(S(=O)(=O)c3cccs3)C[C@@H]2COCc2ccco2)cc1)C(F)(F)F (mixture of isomers)
f

Then this molecule: CC(O)(c1ccc(N2CCN(S(=O)(=O)c3cccs3)C[C@@H]2CN2C3COCC2C(O)C3)cc1)C(F)(F)F (single isomer, unassigned; peak #4) [Example 77 Peak #4]
t

Then this molecule: CC1(C)C(=O)NCCN1C[C@H]1CN(S(=O)(=O)c2cccs2)CCN1c1ncc(C(O)(C(F)(F)F)C(F)(F)F)cn1
t

Further cases:
State whether the measured pIC50 reaches 7, counting equality as reaching it, for CC1(C)C(=O)NCCN1C[C@H]1CN(S(=O)(=O)c2cccs2)CCN1c1ccc(C(C)(O)C(F)(F)F)cc1 (single isomer, unassigned) [Example 180 Peak #2]
t

Then this molecule: CC(O)(c1ccc(N2CCN(S(=O)(=O)c3cccs3)C[C@@H]2CN2C3CCCC2CC(O)C3)cc1)C(F)(F)F (mixture of isomers)
t

Then this molecule: O=S(=O)(c1cccs1)N1CCN(c2ncc(C(O)(C(F)(F)F)C(F)(F)F)cn2)[C@@H](CN2C3COCC2C(O)C3)C1 (single isomer, unassigned) [Example 79 Peak #2]
t

Then this molecule: C[C@H]1COCCN1C[C@H]1CN(S(=O)(=O)c2cccs2)CCN1c1ncc(C(O)(C(F)(F)F)C(F)(F)F)cn1
t

Then this molecule: CC(O)(c1ccc(N2CCN(S(=O)(=O)c3cccs3)C[C@@H]2CN(C2COC2)S(C)(=O)=O)cc1)C(F)(F)F (mixture of isomers)
f

====

Tested system: interaction between glucokinase (GK) and glucokinase regulatory protein (GKRP) (Homo sapiens, UniProt Q14397)
Sequence (Q14397 1-625): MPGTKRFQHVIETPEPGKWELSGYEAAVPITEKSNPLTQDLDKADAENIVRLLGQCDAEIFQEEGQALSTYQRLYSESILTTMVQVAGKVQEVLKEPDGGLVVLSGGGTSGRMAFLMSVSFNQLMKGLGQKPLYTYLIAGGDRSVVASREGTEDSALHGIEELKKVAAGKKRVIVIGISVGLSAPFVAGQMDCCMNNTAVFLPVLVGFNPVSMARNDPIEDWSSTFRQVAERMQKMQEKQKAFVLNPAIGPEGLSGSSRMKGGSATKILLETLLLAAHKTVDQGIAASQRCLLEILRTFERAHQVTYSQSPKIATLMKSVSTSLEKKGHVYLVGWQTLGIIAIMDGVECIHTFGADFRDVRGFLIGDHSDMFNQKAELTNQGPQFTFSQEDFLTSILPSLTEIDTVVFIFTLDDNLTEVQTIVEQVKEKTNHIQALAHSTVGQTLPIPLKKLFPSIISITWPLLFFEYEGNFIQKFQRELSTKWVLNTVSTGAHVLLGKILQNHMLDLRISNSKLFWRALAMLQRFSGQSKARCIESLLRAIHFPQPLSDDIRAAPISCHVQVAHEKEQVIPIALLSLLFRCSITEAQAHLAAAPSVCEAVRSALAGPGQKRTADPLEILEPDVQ
Test description: biochemical
Type: binding
Measurement parameters: avi-tagged GKRP, GK-fluorescein, AlphaScreen beads; read-out: GK-GKRP IC50 (Binding)
Readout: pIC50
Please note pIC50 is a logarithmic value: minus log10 of concentration in mol/L. Answer with that number alone.

Worked examples follow.
I would be grateful if you could share the reported pIC50 for C[C@H]1CN(S(=O)(=O)c2nccs2)CCN1c1ncc(C(O)(C(F)(F)F)C(F)(F)F)cn1 [Example 146] .
6.20

Then this compound: C[C@H]1CN(S(=O)(=O)c2ccc(N)nc2)CCN1c1ccc(C(O)(C(F)(F)F)C(F)(F)F)cc1 [Example 92]
6.69

Then this compound: CC(O)(c1ccc(N2CCN(S(=O)(=O)c3cccs3)C[C@@H]2CN2[C@@H]3COC[C@H]2CC(=O)C3)cc1)C(F)(F)F (single isomer, unassigned) [Example 106 Peak#1]
7.28

Then this compound: CC(C)N(C[C@H]1CN(S(=O)(=O)c2cccs2)CCN1c1ccc(C(C)(O)C(F)(F)F)cc1)S(=O)(=O)c1cccnc1 (mixture of isomers) [Example 198]
6.97

Then this compound: CC1CS(=O)(=O)CCN1C[C@H]1CN(S(=O)(=O)c2cccs2)CCN1c1ccc(C(C)(O)C(F)(F)F)cc1 (mixture of isomers) [Example 86]
7.21

Then this compound: CC(O)(c1ccc(N2CCN(S(=O)(=O)c3cccs3)C[C@@H]2CN2CCOCC2c2ccc(F)cc2)cc1)C(F)(F)F (single isomer, unassigned) [Example 115 Peak #1]
6.23

Then this compound: O=S(=O)(c1cccs1)N1CCN(c2ccc(C(O)(C(F)(F)F)C(F)(F)F)cc2)C(Cc2ccc(O)cc2)C1 (racemic) [Example 177]
6.10

Then this compound: CC(O)(c1ccc(N2CCN(S(=O)(=O)c3cccs3)C[C@@H]2CN(Cc2ccccc2)S(C)(=O)=O)cc1)C(F)(F)F (mixture of isomers) [Example 220]
8.52

Further cases:
I would be grateful if you could share the reported pIC50 for CCC(C#Cc1cc(C(O)(C(F)(F)F)C(F)(F)F)ccc1N1CCC(S(=O)(=O)c2ccccc2)CC1)OC (racemic) [Example 163] .
6.22

Then this compound: Cn1cnc(COC[C@H]2CN(S(=O)(=O)c3cccs3)CCN2c2ccc(C(C)(O)C(F)(F)F)cc2)c1 (mixture of isomers) [Example 119]
6.41

Then this compound: CCC(O)C#Cc1cc(C(O)(C(F)(F)F)C(F)(F)F)ccc1N1CCN(S(=O)(=O)c2cccs2)CC1 (racemic) [Example 154]
5.97

====

Tested system: GKRP (Glucokinase Regulatory Protein) with human His-hepatic GK (Homo sapiens)
Sequence (Q14397 1-625): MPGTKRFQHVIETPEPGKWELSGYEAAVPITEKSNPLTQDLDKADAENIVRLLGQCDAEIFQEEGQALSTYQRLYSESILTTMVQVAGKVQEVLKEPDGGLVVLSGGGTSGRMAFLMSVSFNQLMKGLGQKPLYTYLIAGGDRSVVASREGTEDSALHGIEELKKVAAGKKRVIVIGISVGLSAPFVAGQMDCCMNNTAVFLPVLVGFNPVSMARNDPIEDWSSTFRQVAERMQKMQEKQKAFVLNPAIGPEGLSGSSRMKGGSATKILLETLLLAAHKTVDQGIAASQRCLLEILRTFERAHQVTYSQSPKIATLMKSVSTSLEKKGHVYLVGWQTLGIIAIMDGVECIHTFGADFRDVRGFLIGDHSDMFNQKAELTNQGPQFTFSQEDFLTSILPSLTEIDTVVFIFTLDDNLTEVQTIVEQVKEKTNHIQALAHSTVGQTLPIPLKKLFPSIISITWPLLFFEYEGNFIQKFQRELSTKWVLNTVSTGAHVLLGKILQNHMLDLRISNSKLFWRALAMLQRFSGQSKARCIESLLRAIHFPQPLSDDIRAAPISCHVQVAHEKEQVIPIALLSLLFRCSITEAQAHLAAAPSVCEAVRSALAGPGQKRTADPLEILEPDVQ
Test description: GKRP LC MS/MS Biochemical Assay
Measurement parameters: GK-GKRP EC50 (LC MS/MS), 13C-glucose-6-phosphate formation; 1 μM GKRP (10×), 30 nM GK (5×)
pEC50: −log10 of the molar value. Where a name gives a salt, the structure may show the parent alone.
# binarize pEC50: threshold 6 inclusive, high side yes, low side no

State whether the measured pEC50 reaches 6, counting equality as reaching it, for CC(O)(c1ccc(-c2ccc(S(=O)(=O)c3ccccc3)c(Cl)c2)nc1)C(F)(F)F (racemic)
no

Further cases:
State whether the measured pEC50 reaches 6, counting equality as reaching it, for COc1cccc(-c2cc(C(O)(C(F)(F)F)C(F)(F)F)ccc2N2CCN(S(=O)(=O)c3cccs3)CC2)c1 [Example 70, trifluoroacetate]
no

Then this compound: O=S(=O)(c1ccccc1Cl)N1CCN(c2ccc(C(O)(C(F)(F)F)C(F)(F)F)cc2)CC1
no

Then this compound: CC(O)(c1ccc(N2CCN(S(=O)(=O)c3cccs3)C[C@@H]2Cc2ccccc2)cc1)C(F)(F)F (single isomer, unassigned) [Example 65 Peak #1]
yes
